# SYSTEM_NAME: Full length WRN protein (aa 2-1432) (Homo sapiens (Human))
# Sequence (Q14191 2-1432): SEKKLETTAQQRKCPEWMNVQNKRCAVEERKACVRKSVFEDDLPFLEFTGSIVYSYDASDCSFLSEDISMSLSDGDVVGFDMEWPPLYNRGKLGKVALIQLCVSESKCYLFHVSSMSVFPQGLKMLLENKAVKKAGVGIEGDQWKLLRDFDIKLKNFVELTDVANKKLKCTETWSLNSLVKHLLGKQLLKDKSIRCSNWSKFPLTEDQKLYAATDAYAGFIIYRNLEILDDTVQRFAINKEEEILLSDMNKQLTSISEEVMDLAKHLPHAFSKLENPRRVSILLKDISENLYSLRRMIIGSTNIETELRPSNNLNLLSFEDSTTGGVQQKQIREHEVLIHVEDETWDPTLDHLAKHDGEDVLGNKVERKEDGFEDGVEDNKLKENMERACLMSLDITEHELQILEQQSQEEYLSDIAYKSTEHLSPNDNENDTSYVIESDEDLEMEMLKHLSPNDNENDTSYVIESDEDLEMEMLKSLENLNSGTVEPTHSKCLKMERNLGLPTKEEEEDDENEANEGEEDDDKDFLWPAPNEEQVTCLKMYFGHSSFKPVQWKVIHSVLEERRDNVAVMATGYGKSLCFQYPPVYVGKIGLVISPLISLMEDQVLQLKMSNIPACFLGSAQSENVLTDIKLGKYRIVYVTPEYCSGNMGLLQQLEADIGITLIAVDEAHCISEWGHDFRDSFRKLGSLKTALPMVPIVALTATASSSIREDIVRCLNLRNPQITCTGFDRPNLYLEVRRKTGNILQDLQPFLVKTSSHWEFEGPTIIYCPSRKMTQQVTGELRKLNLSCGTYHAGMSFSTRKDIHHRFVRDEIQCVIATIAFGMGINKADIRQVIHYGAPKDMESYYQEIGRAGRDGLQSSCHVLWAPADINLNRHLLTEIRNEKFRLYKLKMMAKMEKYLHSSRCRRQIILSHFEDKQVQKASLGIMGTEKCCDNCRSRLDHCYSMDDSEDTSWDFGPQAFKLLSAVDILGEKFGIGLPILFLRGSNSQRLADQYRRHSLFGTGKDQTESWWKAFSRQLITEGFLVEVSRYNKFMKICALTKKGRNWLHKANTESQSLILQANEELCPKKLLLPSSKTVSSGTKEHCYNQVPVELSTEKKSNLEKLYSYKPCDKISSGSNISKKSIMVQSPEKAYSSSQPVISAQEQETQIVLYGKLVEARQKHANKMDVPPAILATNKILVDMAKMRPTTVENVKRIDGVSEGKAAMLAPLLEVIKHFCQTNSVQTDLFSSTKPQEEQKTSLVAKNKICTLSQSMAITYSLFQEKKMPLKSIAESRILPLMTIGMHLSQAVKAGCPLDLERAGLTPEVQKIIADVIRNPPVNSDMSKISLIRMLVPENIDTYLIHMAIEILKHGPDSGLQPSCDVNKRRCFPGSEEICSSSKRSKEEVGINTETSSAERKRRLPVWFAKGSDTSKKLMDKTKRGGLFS
# EXPERIMENT_NOTES: WRN ATPase ADP-Glo biochemical assay, Assay Format B (100 μM ATP)
# TEST_CONDITIONS: 0.25 nM WRN, 100 nM C6.18 ssDNA, 60 min preincubation, read-out: ATPase ADPGlo AC50 (uM)- Assay Format B
MEASUREMENT_LABEL: AC50

[[record]]
molecule = "C=CC(=O)N1CCc2nn(-c3ccc(C4CC4)cc3O)c3c2C(C1)N(C(=O)c1cnc(Cl)cc1N)CC3 (stereo not shown) [Compound 196]"
val = "0.005 to 0.015 µM"

[[record]]
molecule = "C=CC(=O)N1CCc2nn(-c3ccc(C4CCC4)cc3O)c3c2C(C1)N(C(=O)c1cc(O)c2scnc2c1)CC3 (stereo not shown) [Compound 153]"
val = "0.0015 to 0.005 µM"

[[record]]
molecule = "C=CC(=O)N1CCc2nn(-c3cc(F)c(C4CC4)c(F)c3O)c3c2C(C1)N(C(=O)c1cnc(C(F)(F)F)cc1N)CC3 (stereo not shown) [Compound 244]"
val = "0.015 to 0.055 µM"

[[record]]
molecule = "C=CC(=O)N1CCc2nn(-c3ccc(C4CC4)cc3O)c3c2C(C1)N(C(=O)c1ccc(Br)c2[nH]cnc12)CC3 (stereo not shown) [Compound 5]"
val = "0.005 to 0.015 µM"

[[record]]
molecule = "C=CC(=O)N1CCc2nn(-c3ccc(C4CC4)cc3)c3c2C(C1)N(C(=O)c1ccc2c(c1)[nH]c(=O)n2C)CC3 (stereo not shown) [Compound 70]"
val = "> 0.055 µM"

[[record]]
molecule = "C=CC(=O)N1CC(OCc2ncco2)c2nn(-c3ccc(C4CC4)cc3)c3c2C(C1)N(C(=O)c1cnc(C(F)(F)F)cc1N)CC3 (stereo not shown) [Compound 250]"
val = "< 0.0015 µM"

[[record]]
molecule = "C=CC(=O)N1CCc2nn(-c3ccc(C4CC4)cc3)c3c2C(C1)N(C(=O)c1ccc(OC(F)F)nc1)CC3 (stereo not shown) [Compound 69]"
val = "0.015 to 0.055 µM"


The reported numbers originate from patent US20250346600A1.
